The measured values listed here are drawn from patent US8492375B2.

- Assayed System: histamine H3 receptor (Homo sapiens, UniProt Q9Y5N1)
- Sequence (Q9Y5N1 whole entry): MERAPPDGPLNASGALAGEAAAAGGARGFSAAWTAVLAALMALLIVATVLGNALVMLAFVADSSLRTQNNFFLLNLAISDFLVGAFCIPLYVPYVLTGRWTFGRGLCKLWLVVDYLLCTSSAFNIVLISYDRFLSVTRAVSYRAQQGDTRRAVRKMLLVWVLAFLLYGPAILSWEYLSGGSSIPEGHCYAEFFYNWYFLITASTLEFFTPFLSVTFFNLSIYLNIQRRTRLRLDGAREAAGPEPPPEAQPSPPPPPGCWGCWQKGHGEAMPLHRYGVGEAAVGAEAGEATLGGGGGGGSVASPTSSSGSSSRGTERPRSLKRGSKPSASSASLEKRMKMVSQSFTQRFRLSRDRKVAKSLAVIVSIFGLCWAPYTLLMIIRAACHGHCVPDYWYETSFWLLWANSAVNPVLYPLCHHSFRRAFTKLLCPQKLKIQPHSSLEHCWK
- Protocol Notes: Histamine H3 functional antagonist assay ([35S]GTPγS binding, SPA, membranes of CHO K1 cells)
- Setup Conditions: pKb, antagonism of 0.3 μM histamine, membranes with human H3 receptor
Counter-ions that a name gives are not always drawn.
Test Readout: Kb

Query: Lab note: need Kb for CC(=O)c1ccc(-c2ccc(C(=O)N3CCCN(C4CCC4)CC3)cc2)cc1 [Example 2, hydrochloride] on histamine H3 receptor (Homo sapiens, UniProt Q9Y5N1), anyone have it?
Reply: < 0.316 nM

Query: Lab note: need Kb for N#Cc1ccc(-c2ccc(C(=O)N3CCCN(C4CCC4)CC3)cc2)cc1 [Example 1, hydrochloride] on histamine H3 receptor (Homo sapiens, UniProt Q9Y5N1), anyone have it?
Reply: < 0.316 nM

Query: Lab note: need Kb for CNC(=O)c1ccc(-c2ccc(C(=O)N3CCCN(C4CCC4)CC3)cc2)cn1 [Example 13, hydrochloride] on histamine H3 receptor (Homo sapiens, UniProt Q9Y5N1), anyone have it?
Reply: ≤ 1 nM

Query: Lab note: need Kb for O=C(c1ccc(-n2cnnn2)cc1)N1CCCN(C2CCC2)CC1 [Example 7, hydrochloride] on histamine H3 receptor (Homo sapiens, UniProt Q9Y5N1), anyone have it?
Reply: ≤ 1 nM

Query: Lab note: need Kb for Cc1noc(-c2ccc(C(=O)N3CCCN(C4CCC4)CC3)cc2)n1 [Example 58, hydrochloride] on histamine H3 receptor (Homo sapiens, UniProt Q9Y5N1), anyone have it?
Reply: < 0.316 nM

Query: Lab note: need Kb for O=C(c1ccc(-c2cnc(C(F)(F)F)nc2)cc1)N1CCCN(C2CCC2)CC1 [Example 23, hydrochloride] on histamine H3 receptor (Homo sapiens, UniProt Q9Y5N1), anyone have it?
Reply: ≤ 1 nM

Query: Lab note: need Kb for CNC(=O)c1ccc(-c2ccc(C(=O)N3CCCN(C(C)C)CC3)cc2)cn1 [Example 16, hydrochloride] on histamine H3 receptor (Homo sapiens, UniProt Q9Y5N1), anyone have it?
Reply: ≤ 1 nM

Query: Lab note: need Kb for O=C(c1ccc(-c2ccc(C(F)(F)F)nn2)cc1)N1CCCN(C2CCC2)CC1 [Example 22, hydrochloride] on histamine H3 receptor (Homo sapiens, UniProt Q9Y5N1), anyone have it?
Reply: ≤ 1 nM

Query: Lab note: need Kb for O=C(c1ccc(-c2ccc(C(F)(F)F)nc2)cc1)N1CCCN(C2CCC2)CC1 [Example 11, hydrochloride] on histamine H3 receptor (Homo sapiens, UniProt Q9Y5N1), anyone have it?
Reply: < 0.316 nM

Query: Lab note: need Kb for N#Cc1ccc(-c2ccc(C(=O)N3CCCN(C4CCC4)CC3)cc2)cn1 [Example 14, hydrochloride] on histamine H3 receptor (Homo sapiens, UniProt Q9Y5N1), anyone have it?
Reply: ≤ 1 nM
